Hello, the source for this data is patent US20250074871A1, in case you need it.

Test target: 5-HT2A receptor (Homo sapiens, UniProt P28223)
Construct: expressed in transfected cells; host or cells: HEK293T
Sequence (P28223 whole entry): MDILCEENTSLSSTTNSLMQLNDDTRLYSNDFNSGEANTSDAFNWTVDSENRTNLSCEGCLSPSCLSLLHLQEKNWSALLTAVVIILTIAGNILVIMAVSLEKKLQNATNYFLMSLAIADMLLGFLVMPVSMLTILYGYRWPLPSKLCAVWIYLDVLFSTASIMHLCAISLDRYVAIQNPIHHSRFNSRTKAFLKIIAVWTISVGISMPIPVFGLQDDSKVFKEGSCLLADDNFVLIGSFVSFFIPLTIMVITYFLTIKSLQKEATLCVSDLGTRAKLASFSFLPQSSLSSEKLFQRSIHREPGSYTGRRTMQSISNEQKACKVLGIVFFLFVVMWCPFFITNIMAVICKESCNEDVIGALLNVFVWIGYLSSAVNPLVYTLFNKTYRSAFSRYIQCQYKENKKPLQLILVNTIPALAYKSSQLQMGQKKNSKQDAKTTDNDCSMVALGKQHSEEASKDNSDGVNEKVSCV
Procedure details: 5-HT2A Gq dissociation BRET functional assay
Assay type: cell-based
Test settings: Table 2; normalized to % 5-HT stimulation
Category | rule: reported 5-HT2A BRET Eff % within range, see label 0 (below 50%), label 1 (50% to below 80%), label 2 (80% or more)

Sample answers from the record:
> print(dat)
                              molecule  qualitative.label
1           COc1cc(C#N)ccc1CCNCc1cccs1            label 1
2       COc1cc(C#N)ccc1CCNCc1ccc(F)cc1            label 1
3         COc1cc(C#N)ccc1CCNCc1ccccc1O            label 2
4       COc1cc(C#N)ccc1CCNCc1cccc(F)c1            label 2
5  COc1cc(C#N)ccc1CCNCc1cccc2ncn(C)c12            label 0
6     COc1cc(C#N)ccc1CCN(C)Cc1ccccc1Cl            label 0

Input: Please let me know in which category the item `N#Cc1ccc(CCNCc2ccccc2O)c(OC(F)(F)F)c1` belongs.
Output: label 2

Input: Please let me know in which category the item COc1cc(C#N)ccc1CCNC1COc2ccccc21 (stereo not shown) belongs.
Output: label 1

Input: Please let me know in which category the item NCCc1c[nH]c2ccc(O)cc12 [5-hydroxytryptamine (serotonin), 5-hydroxytryptamine, reference compound] belongs.
Output: label 2

====

Test target: 5-HT2C receptor (Homo sapiens)
Construct: expressed in transfected cells; host or cells: HEK293T
Sequence (P28335 33-458): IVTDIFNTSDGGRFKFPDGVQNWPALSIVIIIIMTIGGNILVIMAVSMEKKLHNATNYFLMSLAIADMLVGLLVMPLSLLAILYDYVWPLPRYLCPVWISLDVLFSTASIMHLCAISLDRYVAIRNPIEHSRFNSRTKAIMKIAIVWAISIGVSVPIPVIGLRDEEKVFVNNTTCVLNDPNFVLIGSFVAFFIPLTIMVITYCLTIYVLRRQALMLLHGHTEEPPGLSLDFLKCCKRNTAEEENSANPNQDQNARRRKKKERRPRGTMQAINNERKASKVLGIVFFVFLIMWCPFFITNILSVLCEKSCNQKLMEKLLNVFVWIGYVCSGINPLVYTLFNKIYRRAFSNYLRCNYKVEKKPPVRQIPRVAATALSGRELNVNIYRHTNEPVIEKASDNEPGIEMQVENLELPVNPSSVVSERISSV
Procedure details: cell-based
Format: cell-based
Test settings: Table 2; normalized to % 5-HT stimulation
Measured 5-HT2C BRET Eff % values are reported for all entries that follow.
Just the number in %, nothing appended.

Reference set, count: 5
> print(dat)
                                   compound  quantitative.readout
1       COc1cc(C#N)ccc1CCNCC1CC1 [Cpd #133]                    71
2  N#Cc1ccc(CCNCc2ccccc2OC(F)(F)F)c(O)c1 [Cpd #124]                    98
3  COc1cc(-c2cnoc2)ccc1CCNCc1ccccc1Cl [Cpd #101]                   116
4  Cc1ccc(CCNCc2cccc3c2OCO3)c(O)c1 [Cpd #132]                    84
5  COc1cc(-c2ncccn2)ccc1CCNCc1ccccc1Cl [Cpd #104]                   106

Input: Look up and report measured 5-HT2C BRET Eff % (5-HT2C receptor (Homo sapiens)) for the following compound: COc1ccc(CNCCc2ccc(C#N)cc2OC)cc1 [Cpd #29]
Output: 75

Input: Look up and report measured 5-HT2C BRET Eff % (5-HT2C receptor (Homo sapiens)) for the following compound: COc1cc(-c2cncnc2)ccc1CCNCc1ccccc1Cl [Cpd #105]
Output: 107

Input: Look up and report measured 5-HT2C BRET Eff % (5-HT2C receptor (Homo sapiens)) for the following compound: CSc1ccccc1CNC[C@@H]1CCc2cc(C#N)cc(O)c21 [Cpd #142]
Output: 108

Input: Look up and report measured 5-HT2C BRET Eff % (5-HT2C receptor (Homo sapiens)) for the following compound: COc1cc(C#N)ccc1CCNCc1cccc(Cl)c1 [Cpd #13]
Output: 96
